Quantity Name: melting point

# input Quick one: melting point for O=C(Nc1cccc2[nH]ccc12)c1ccccc1OCCCNC1CCCCC1 ?
# output 148 °C

# input Item CN1CC(C(=O)COC(=O)C(C)(C)C)CC2c3cccc4[nH]cc(c34)CC21 (stereo not given) has what recorded melting point?
# output 155 to 156 °C

# input melting point lookup needed for CCCC1C(C(=O)OCC)C(O)(C(F)(F)F)NC(O)(C(F)(F)F)C1C(=O)OCC (stereo not given) , thanks.
# output 140 to 142 °C

# input Which melting point value belongs to CN1Cc2c(-c3nc(CN4C(=O)c5ccccc5C4=O)no3)ncn2-c2cccc(Cl)c2C1=O ?
# output 237 to 239 °C

# input Any idea what melting point was measured for FC(F)(F)c1cc(C2CN(Cc3ccccc3)CO2)c2cccc(C(F)(F)F)c2n1 (stereo not given) ?
# output 108 to 109 °C

# input Could you share which melting point value was measured for O=C(O)Cc1cccc(Oc2ccccc2F)c1[N+](=O)[O-] ?
# output 144 to 146 °C

# input Fill in the blank: the reported melting point of CS(=O)(=O)CCNC(=O)c1cccc(-c2ccc3c(c2)C(Oc2ccc(Cl)cc2Cl)CC3)c1 (stereo not given) is ____.
# output 140 to 143 °C

# input Which melting point is listed for O=C(O)c1ccc(F)c(Nc2ncccc2-c2ccncn2)c1 ?
# output 95 °C

# input Consider the compound shown here: O=C(CCCN1CCOCC1)c1ccc2c(c1)Cc1cc(C(=O)CCCN3CCOCC3)ccc1S2 What is its recorded melting point?
# output 90.5 to 91.5 °C

# input I have this compound here, CC1(C)CCc2c(N3CCOCC3)nc3sc4c(NCc5ccncc5)ncnc4c3c2C1 , and I need its recorded melting point.
# output 240 to 241 °C

# input Fill in: melting point of Oc1ccc(O)c2[nH]c(-c3ccc(Cl)cc3)nc12 is ___
# output > 300 °C

# input Would you mind telling me what melting point value was observed for CN1CCC(O)(c2ccccc2N)CC1 ?
# output 135 to 136 °C

# input Given the entry O=C(NCc1ccc(Cl)cc1)c1cc(Br)c2cccnc2c1O , report its measured melting point.
# output 148 to 151 °C

# input compound: Cc1ccccc1/C=C/c1nc(COc2ccc(CCCCn3ccnc3CCO)cc2)co1 ; wanted: its melting point
# output 91 to 93 °C

# input Recorded melting point of C=C(C(=O)NCc1ccccc1)c1ccccc1 , please.
# output 84 to 86 °C

# input For the compound O=S(=O)(c1ccc(Cl)cc1)C1(c2cccnc2Cl)CCCCC1 , what melting point is on record?
# output 129 to 131 °C

# input Item under review: O=C(Cc1ccccc1)c1cccc(OCc2ccccc2)c1 . Reported melting point?
# output 58 to 60 °C

# input Would you kindly share the measured melting point for CS(=O)c1nnc2n1C=Cc1ccccc1C2 (stereo not given) ?
# output 176 to 177 °C

# input Request the reported melting point associated with Nc1nc(SCc2ccc3ccccc3c2)nc(O)c1CCO
# output 192 to 193 °C

# input Please give the measured melting point for this compound: N#Cc1ccc(N(Cc2ccc(OCc3ccccc3)cc2)n2cnnc2)cc1-c1cc2ccccc2o1
# output 200 to 201 °C

# input Please give the measured melting point for this compound: CCNC(=O)CCCC1CCN(Cc2cnc3cc(NC(=O)c4ccc(-c5ccc(F)cc5)cc4)ccc3c2)CC1
# output 209 to 213 °C

# input Query (compound): CC1=CC(OC(=O)c2ccc(N)c(N)c2)C(O)C(C)(C)CC1=O (stereo not given) ; field requested: melting point
# output 136 to 137 °C

# input Recorded melting point for COc1ccc(C(=O)Nc2c(Cl)cncc2Cl)c2c1oc1ccc(Cl)cc12 , please?
# output > 250 °C

# input Look at this compound and give its reported melting point. CC(C)(C)Cc1cc(C2(N)CC2)no1
# output 39 to 47 °C

# input melting point for O=C(O)Cc1cc(C(=O)C=Cc2ccc(F)cc2)ccc1O ?
# output 212 °C

# input Could you tell me which melting point is on file for O=c1ccc(-c2ccc(Cl)c(Cl)c2)nn1CN1CCN(Cn2nc(-c3ccc(Cl)c(Cl)c3)ccc2=O)CC1 ?
# output 234 to 236 °C

# input If you can, please state the reported melting point value of CC(=NN(C)C(=O)c1ccccc1)c1ccncc1 .
# output 128 °C

# input Can you share its melting point? I mean this compound: O=C1CCC(c2ccccc2)(c2ccccc2)[C@@H]2CN(C(=O)Cc3ccc(Cl)cc3)C[C@H]12 (racemic)
# output 213 °C

# input Fill in: melting point of O=C(OCOCOC(=O)c1c(F)cccc1F)c1c(F)cccc1F is ___
# output 52 to 53 °C

# input Fill in: melting point of CC(=O)NCC(=O)N1CC1C#N (stereo not given) is ___
# output 102 to 104 °C

# input Look up melting point for this compound: O=C(O)C1CC(=C2CCN(c3ccccc3)C2=O)c2ccc(Cl)cc2N1 (stereo not given)
# output > 200 °C

# input Tell me the measured melting point of Oc1ccc(C(O)CNCCCn2cnc3ccccc32)cc1 (stereo not given) , please.
# output 146 to 148 °C

# input Returns the measured melting point for the input compound. Input: COc1ccc(CC(=O)NCC(OC)OC)cc1OC
# output 60 to 63 °C

# input Fill in the blank: the reported melting point of Cn1c(-c2ccccc2)c(C2=CCC(C(=O)O)(C(=O)O)CC2)c2ccccc21 is ____.
# output 210 to 211 °C

# input Please give the measured melting point for this compound: CC(=O)SCC(Cc1ccccc1)C(=O)Nc1cc(C)cc(C(=O)O)c1 (stereo not given)
# output 160 to 161 °C

# input Quick one: melting point of COc1cccc(C2=C(C#N)C(c3cccc4nsnc34)c3c[nH]nc3N2)c1 (stereo not given) ?
# output 220 °C

# input Consider the compound COC1(c2ccc(Sc3ccc4c(c3)OCC(=O)N4C)s2)CCOCC1 and give its measured melting point.
# output 65 to 69 °C

# input Returns the measured melting point for the input compound. Input: Cc1ccc(-c2c(-c3ccc(S(N)(=O)=O)cc3)cnn(-c3ccc(F)c(F)c3)c2=O)cc1F
# output 198 to 200 °C

# input Would you kindly share the measured melting point for COc1ccc(CC#N)cc1S(=O)(=O)NC(C)(C)C ?
# output 146 to 147 °C

# input Reported melting point for COc1ccc2c(c1)CC(C(N)=O)N2C(C)=O (stereo not given) : what is it?
# output 196 to 197 °C
